Target: UniProt Q8IM10
Assay: IC50 for competition of protein binding to Kinobeads
Settings: assay detail: Kinobeads competition in P. falciparum blood-stage lysate
QUANTITY NAME: IC50

Find the recorded IC50 belonging to O=c1[nH]c2ccc(Cl)cc2c(NC2CN3CCC2CC3)c1-c1nc2ccccc2[nH]1 (stereo unspecified) and report it.
> 20 µM

---

Molecular target: UniProt Q8I442
Assay: apparent dissociation constant (Kd app) from Kinobeads competition
Details: assay detail: Kinobeads competition in P. falciparum blood-stage lysate
QUANTITY NAME: pKd
In simple prose, pKd is minus the logarithm base ten of a concentration in moles per litre.

Find the recorded pKd belonging to O=c1[nH]c2ccc(Cl)cc2c(NC2CN3CCC2CC3)c1-c1nc2ccccc2[nH]1 (stereo unspecified) and report it.
5.15

---

Molecular target: UniProt Q8ID31
Assay: IC50 for competition of protein binding to Kinobeads
Conditions: assay detail: Kinobeads competition in P. falciparum blood-stage lysate
pIC50: −log10 of the molar value.
QUANTITY NAME: pIC50

Provide value of pIC50 for this record tested with UniProt Q8ID31: O=c1[nH]c2ccc(Cl)cc2c(NC2CN3CCC2CC3)c1-c1nc2ccccc2[nH]1 (stereo unspecified)
< 4.70

---

Biological target: UniProt Q8I4Z2
Test: IC50 for competition of protein binding to Kinobeads
Conditions: assay detail: Kinobeads competition in P. falciparum blood-stage lysate
QUANTITY NAME: IC50

Find the recorded IC50 belonging to O=c1[nH]c2ccc(Cl)cc2c(NC2CN3CCC2CC3)c1-c1nc2ccccc2[nH]1 (stereo unspecified) and report it.
> 20 µM

---

Target: UniProt Q8IDS6
Assay: IC50 for competition of protein binding to Kinobeads
Conditions: assay detail: Kinobeads competition in P. falciparum blood-stage lysate
pIC50: −log10 of the molar value.
QUANTITY NAME: pIC50

Find the recorded pIC50 belonging to O=c1[nH]c2ccc(Cl)cc2c(NC2CN3CCC2CC3)c1-c1nc2ccccc2[nH]1 (stereo unspecified) and report it.
< 4.70

---

Target: UniProt O96259
Experiment: IC50 for competition of protein binding to Kinobeads
Conditions: assay detail: Kinobeads competition in P. falciparum blood-stage lysate
QUANTITY NAME: IC50

Find the recorded IC50 belonging to O=c1[nH]c2ccc(Cl)cc2c(NC2CN3CCC2CC3)c1-c1nc2ccccc2[nH]1 (stereo unspecified) and report it.
> 20 µM

---

Target: UniProt C6KT96
Assay: IC50 for competition of protein binding to Kinobeads
Conditions: assay detail: Kinobeads competition in P. falciparum blood-stage lysate
pIC50: −log10 of the molar value.
QUANTITY NAME: pIC50

Find the recorded pIC50 belonging to O=c1[nH]c2ccc(Cl)cc2c(NC2CN3CCC2CC3)c1-c1nc2ccccc2[nH]1 (stereo unspecified) [CHIR-124] and report it.
< 4.70

---

Target: UniProt Q7KQL3
Sequence (Q7KQL3 whole entry): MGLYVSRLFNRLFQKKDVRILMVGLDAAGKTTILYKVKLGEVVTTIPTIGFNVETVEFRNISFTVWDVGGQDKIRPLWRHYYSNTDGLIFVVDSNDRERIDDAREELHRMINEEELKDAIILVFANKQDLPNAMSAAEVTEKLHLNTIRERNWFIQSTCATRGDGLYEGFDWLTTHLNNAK
Assay: IC50 for competition of protein binding to Kinobeads
Settings: assay detail: Kinobeads competition in P. falciparum blood-stage lysate
pIC50: −log10 of the molar value.
QUANTITY NAME: pIC50

Provide value of pIC50 for this record tested with UniProt Q7KQL3: O=c1[nH]c2ccc(Cl)cc2c(NC2CN3CCC2CC3)c1-c1nc2ccccc2[nH]1 (stereo unspecified)
< 4.70

---

Biological target: UniProt Q8I1U8
Experiment: IC50 for competition of protein binding to Kinobeads
Conditions: assay detail: Kinobeads competition in P. falciparum blood-stage lysate
pIC50: −log10 of the molar value.
QUANTITY NAME: pIC50

Provide value of pIC50 for this record tested with UniProt Q8I1U8: O=c1[nH]c2ccc(Cl)cc2c(NC2CN3CCC2CC3)c1-c1nc2ccccc2[nH]1 (stereo unspecified)
< 4.70
